Assay: Pharmacokinetics of compound 12 suspension formulation (methylcellulose/sodium dodecyl sulfate), oral, rats
Type: in vivo, Sprague-Dawley rats
Settings: male, Sprague-Dawley, rat, blood; oral suspension 50 mg/kg
assay_metric: AUC(0-inf) (µg·h/mL)

• CC(C)n1nccc1-c1ncccc1COc1cccc(O)c1C=O [Compound 12] = 7340

----------
Test: Pharmacokinetic (PK) properties in rats, oral or intravenous dosing
Format: in vivo, Rats (Sprague-Dawley)
Settings: male, Sprague-Dawley, rat, whole blood and plasma, po, 10 mg/kg, dosed orally, overall exposure, read-out: Blood/plasma (Ratio of exposure AUCINF)
This section presents compounds with their documented blood plasma ratio values.
assay_metric: blood plasma ratio

* COc1cc(C=O)c(OCc2cccnc2-c2ccccc2C)cn1 | 1
* COc1cc(C=O)c(OCc2cccnc2-c2ccnn2CC(F)F)cn1 | 5
